Each recorded value in this set is attributed to BindingDB's records for doi:10.1016/j.bmcl.2004.04.008.

Let's look at some compounds and their measured IC50.
Assay: Inhibitory concentration against SO561945 (HIV 1 mutant RT) viral infection of MT-4 cells

COc1ccc(C(=O)CSc2nc(Cc3cccc4ccccc34)c(C)c(=O)[nH]2)cc1 = 370 nM
CCc1c(Cc2cccc3ccccc23)nc(SCC(=O)c2ccc(C)cc2)[nH]c1=O = 320 nM
Cc1c(Cc2cccc3ccccc23)nc(SCC(=O)c2ccc(Cl)cc2)[nH]c1=O = 550 nM
Cc1ccc(C(=O)CSc2nc(Cc3cccc4ccccc34)c(C(C)C)c(=O)[nH]2)cc1 = 240 nM
COC(=O)CSc1nc(Cc2cccc3ccccc23)c(C)c(=O)[nH]1 = 6990 nM

// moving on: another record for IC50
In: Kindly indicate its recorded IC50. Item: `CC(C)c1c(Cc2cccc3ccccc23)nc(SCC(=O)c2ccc(Cl)cc2)[nH]c1=O`
Out: > 270000 nM

###

Assay: Inhibitory concentration against SO561945 (HIV 1 mutant RT) viral infection of MT-4 cells
Recorded endpoint: pIC50
Scale: pIC50 equals -log10([C]), with [C] in mol/L.

O=c1[nH]cnc2c1ncn2[C@H]1CC[C@@H](CO)O1 = 5.15

In: Kindly indicate its recorded pIC50. Item: `CC(C)c1c(Cc2cccc3ccccc23)nc(SCC(=O)c2ccccc2)[nH]c1=O`
Out: 4.71

In: Kindly indicate its recorded pIC50. Item: `Cc1ccc(C(=O)CSc2nc(Cc3cccc4ccccc34)c(C(C)C)c(=O)[nH]2)c(C)c1`
Out: 5.57

In: Kindly indicate its recorded pIC50. Item: `CCc1c(Cc2cccc3ccccc23)nc(SCC(=O)c2ccc(F)cc2)[nH]c1=O`
Out: 4.62

In: Kindly indicate its recorded pIC50. Item: `CC(C)c1c(Cc2cccc3ccccc23)nc(SCC(=O)c2ccc(F)cc2)[nH]c1=O`
Out: 3.73

In: Kindly indicate its recorded pIC50. Item: `COc1ccc(C(=O)CSc2nc(Cc3cccc4ccccc34)c(C(C)C)c(=O)[nH]2)cc1`
Out: 5.24

###

Test: Concentration required to protect the cell against HIV-1 strain IIIB viral cytopathogenicity by 50% in MT-4 cells
Just a reminder that ties go to Not met: only IC50 strictly below 80 nM counts as Met.

Before answering, review these 4 worked examples.
CC(C)c1c(Cc2cccc3ccccc23)nc(SCC(=O)c2ccc(Cl)cc2)[nH]c1=O = Not met
CC(C)c1c(Cc2cccc3ccccc23)nc(SCC(=O)c2ccccc2)[nH]c1=O = Met
O=c1[nH]cnc2c1ncn2[C@H]1CC[C@@H](CO)O1 [BMY-40900] = Not met
Cc1c(Sc2ccccc2)n(COCCO)c(=O)[nH]c1=O = Not met

In: Record `COC(=O)CSc1nc(Cc2cccc3ccccc23)c(C(C)C)c(=O)[nH]1` : is its IC50 strictly below 80 nM?
Out: Not met

In: Record `COc1ccc(C(=O)CSc2nc(Cc3cccc4ccccc34)c(C(C)C)c(=O)[nH]2)cc1` : is its IC50 strictly below 80 nM?
Out: Met

In: Record `CC(=O)CSc1nc(Cc2cccc3ccccc23)c(C(C)C)c(=O)[nH]1` : is its IC50 strictly below 80 nM?
Out: Not met

In: Record `CCc1c(Cc2cccc3ccccc23)nc(SCC(=O)c2ccc(Cl)cc2)[nH]c1=O` : is its IC50 strictly below 80 nM?
Out: Not met

###

Test: Inhibitory concentration against SO561945 (HIV 1 mutant RT) viral infection of MT-4 cells
pIC50: −log10 of the molar value.
Label Fulfilled when pIC50 is at or above 6; anything below gets Not fulfilled.

Before answering, review these 4 worked examples.
CCOC(=O)CSc1nc(Cc2cccc3ccccc23)c(C)c(=O)[nH]1 = Not fulfilled
Cc1ccc(C(=O)CSc2nc(Cc3cccc4ccccc34)c(C(C)C)c(=O)[nH]2)c(C)c1 = Fulfilled
CCc1c(Cc2cccc3ccccc23)nc(SCC(=O)c2ccc(OC)cc2)[nH]c1=O = Fulfilled
Cc1c(Cc2cccc3ccccc23)nc(SCC(=O)c2ccc(F)cc2)[nH]c1=O = Fulfilled

Now look at this one.
In: Answer whether pIC50 of `CCc1c(Cc2cccc3ccccc23)nc(SCC(=O)OC)[nH]c1=O` is greater than or equal to 6.
Out: Not fulfilled

###

Let's look at some molecules and their measured IC50.
Test: Inhibitory concentration against SO561945 (HIV 1 mutant RT) viral infection of MT-4 cells

Some solved cases for reference:
Cc1c(Sc2ccccc2)n(COCCO)c(=O)[nH]c1=O = > 405 µM
CCc1c(Cc2cccc3ccccc23)nc(SCC(=O)c2ccc(OC)cc2)[nH]c1=O = > 178 µM

In: Kindly indicate its recorded IC50. Item: `COC(=O)CSc1nc(Cc2cccc3ccccc23)c(C(C)C)c(=O)[nH]1`
Out: > 179 µM

In: Kindly indicate its recorded IC50. Item: `CCc1c(Cc2cccc3ccccc23)nc(SCC(=O)c2ccc(Cl)cc2)[nH]c1=O`
Out: > 56 µM

In: Kindly indicate its recorded IC50. Item: `CCOC(=O)CSc1nc(Cc2cccc3ccccc23)c(C(C)C)c(=O)[nH]1`
Out: > 175 µM

In: Kindly indicate its recorded IC50. Item: `CC(=O)CSc1nc(Cc2cccc3ccccc23)c(C(C)C)c(=O)[nH]1`
Out: > 43.1 µM

###

Experiment: Inhibitory concentration against SO561945 (HIV 1 mutant RT) viral infection of MT-4 cells
Recorded endpoint: IC50 (nM)
The response must be a number in nM with no trailing unit.

Some solved cases for reference:
CC(=O)CSc1nc(Cc2cccc3ccccc23)c(C)c(=O)[nH]1 = 1120
Cc1ccc(C(=O)CSc2nc(Cc3cccc4ccccc34)c(C)c(=O)[nH]2)cc1 = 670

// moving on: another record for IC50
In: Kindly indicate its recorded IC50. Item: `CCOC(=O)CSc1nc(Cc2cccc3ccccc23)c(C(C)C)c(=O)[nH]1`
Out: 1410
